molecular target: Cytochrome P450 3A4 (Homo sapiens); test: Cytochrome P450 Family 3 Subfamily A Member 4 (CYP3A4) small molecule antagonists: luciferase reporter qHTS assay (AID 1671201); details: P450-Glo CYP3A4 enzyme, luciferin luminescence, 1 h; series mostly up to 115 µM; also: % is scaled to controls: 0 for no effect and ±100 for the full control effect; nearly all actives have a fitted effect of over 50% in size
Records with an inconclusive call do not appear. Activity calls are given as the source filed them. Calls follow the shape of the dose curve; as a rule, active = well fitted inhibition curve with a large enough effect in the repeat runs; inconclusive = weak or mixed curves; inactive = no such curve, though single readings can be large or run the other way.
measurementLabel: activity change, negative = inhibition

molecule="COC(C)(C)CCCC(C)CC=O (centres undefined)" valuereported=inactive
molecule=NC(=O)c1cn(Cc2c(F)cccc2F)nn1 valuereported=inactive
molecule="FC(F)OC(Cl)C(F)(F)F (centres undefined)" valuereported=inactive
molecule=CC(=O)OCC(CCn1cnc2cnc(N)nc21)COC(C)=O valuereported=inactive
molecule=O=C(O)CCCl valuereported=inactive
molecule=N[C@@H](C(=O)N[C@@H]1C(=O)N2C(C(=O)O)=C(Cl)CS[C@H]12)c1ccccc1 valuereported="-15.7% [at 10.5 µM] (inactive)"
molecule=Cc1ccc(=O)n(-c2ccccc2)c1 valuereported=inactive
molecule="C[C@H](NC(CCc1ccccc1)C(=O)O)C(=O)N1CCC[C@H]1C(=O)O (some centres undefined)" valuereported=inactive
molecule="C[N+](C)(C)CC(O)CC(=O)[O-] (centres undefined)" valuereported=inactive
molecule=Cn1c(N)c(N=O)c(=O)n(C)c1=O valuereported=inactive
molecule=CC(C)(C)c1ccc(O)c(O)c1 valuereported=inactive
molecule="O=C1OC(=O)C2CCCCC12 (centres undefined)" valuereported=inactive
molecule=CCc1nccnc1CC valuereported="8.66% [at 23.6 µM] (inactive)"
molecule=CCc1ccc(O)c(OC)c1 valuereported=inactive
molecule=C=C1CC[C@H]2C[C@@H]1C2(C)C valuereported=inactive
molecule=COC(=O)CC(C)=O valuereported=inactive
molecule=O=C(O)CNC(=O)c1ccc([N+](=O)[O-])cc1 valuereported=inactive
molecule="CC(=O)OCC(=O)[C@@]1(O)CCC2C3CCC4=CC(=O)CC[C@]4(C)C3[C@@H](O)C[C@@]21C (some centres undefined)" valuereported=inactive
molecule=CCCCCOC(=O)CCCCC valuereported=inactive
molecule=ClC(Cl)(Br)Br valuereported=inactive
molecule="CCCCC(CC)COC(=O)c1ccccc1O (centres undefined)" valuereported=inactive
molecule=c1ccc([C@H]2CN3CCSC3=N2)cc1 valuereported=inactive
molecule=O=C[C@H](O)[C@@H](O)[C@H](O)[C@H](O)CO valuereported=inactive
molecule=COC(=O)c1c(Cl)c(Cl)c(C(=O)OC)c(Cl)c1Cl valuereported=inactive
molecule=Nc1ccccc1S(=O)(=O)O valuereported=inactive
molecule="CCC(C)S (centres undefined)" valuereported="2.72% [at 4.07 µM] (inactive)"
molecule=Cc1ccc(C#N)cc1 valuereported=inactive
molecule=CC(=O)CC(C)(C)C1CCCCC1 valuereported=inactive
molecule="FC1(F)C(F)(F)C(F)(F)C2(F)C(F)(F)C(F)(F)C(F)(F)C(F)(F)C2(F)C1(F)F (centres undefined)" valuereported=inactive
